Ref: patent US20200339680A1

target: T1, human TMEM106B (human, UniProt Q9NUM4 2-274); experiment: FACS HEK+huTMEM 0.1 ug/ml (2nd column so headed);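 also: flow cytometry binding of purified anti-TMEM106B mouse IgG to HEK293 cells transiently transfected with TMEM106B, read as median fluorescence intensity on live (propidium iodide-negative) cells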
T1 construct: full-length, transiently expressed on HEK293 cells, or natively expressed on HeLa, U251 and A549 cells (the cell is named under assay); also the source of the Pepscan peptides; also called huTMEM106B; huTMEM
endpoint: MFI (MFI)
One number for each entry, in MFI.

Supply measured MFI of TM-39 (antibody, V domains shown) VH: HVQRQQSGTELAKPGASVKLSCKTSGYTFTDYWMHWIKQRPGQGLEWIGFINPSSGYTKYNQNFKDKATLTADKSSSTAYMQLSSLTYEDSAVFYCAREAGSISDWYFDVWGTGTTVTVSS VL: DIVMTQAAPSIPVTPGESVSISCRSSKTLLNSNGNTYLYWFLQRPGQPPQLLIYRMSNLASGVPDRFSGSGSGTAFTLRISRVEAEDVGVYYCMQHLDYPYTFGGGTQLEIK in your reply.
3850
